Item-by-item account of Mortality 7 Days
- Tested on: young adult male Swiss-Webster strain albino mice
- test.protocol: Acute oral toxicity (ALD50)
- Type: in vivo
- conditions: 1000 mg/kg oral, suspension in 1% G.T.

Please review the entries below; each comes with its answer.
{"molecule": "CCCCCCCNc1cc[n+](CCCCCCCCCCCCCC[n+]2ccc(NCCCCCCC)cc2)cc1 [Example 2]", "target.system": "young adult male Swiss-Webster strain albino mice", "Mortality 7 Days": "1/3"}
{"molecule": "CCCCCCCCNc1cc[n+](CCCCCC[n+]2ccc(NCCCCCCCC)cc2)cc1", "target.system": "young adult male Swiss-Webster strain albino mice", "Mortality 7 Days": "1/3"}
{"molecule": "CCCCCCCNc1cc[n+](CCCCCCCCCCCC[n+]2ccc(NCCCCCCC)cc2)cc1 [Example 3]", "target.system": "young adult male Swiss-Webster strain albino mice", "Mortality 7 Days": "1/3"}

--- query ---
// sample CCCCCCCNc1cc[n+](CCCCCCCCCC[n+]2ccc(NCCCCCCC)cc2)cc1 , its Mortality 7 Days was 0/3

###

Measured MIC of individual entries
- Tested on: T. menta. 9129
- test.protocol: In vitro antifungal activity, MIC (modified Autotiter method)
- Format: cell-based, Trichophyton mentagrophytes
- conditions: Trichophyton mentagrophytes, 20 h, 18-20 hours at 37° C.; read-out: MIC T. menta. 9129
Express the result in µg/mL but write the number alone.

Examples with answers:
{"compound": "c1c[n+](CCCCC[n+]2ccc(NC3CCCCC3)cc2)ccc1NC1CCCCC1", "target.system": "T. menta. 9129", "MIC [µg/mL]": 125}
{"compound": "CCCCCCNc1cc[n+](CCCCCCCCC[n+]2ccc(NCCCCCC)cc2)cc1", "target.system": "T. menta. 9129", "MIC [µg/mL]": 3.9}
{"compound": "CCCCCCCNc1cc[n+](CCCCCCCCCC[n+]2ccc(NCCCCCCC)cc2)cc1", "target.system": "T. menta. 9129", "MIC [µg/mL]": 0.75}
{"compound": "CCCCCCCCCCNc1cc[n+](CCCCCCC[n+]2ccc(NCCCCCCCCCC)cc2)cc1", "target.system": "T. menta. 9129", "MIC [µg/mL]": 1.95}
{"compound": "CCCCCCCCCCNc1cc[n+](CCCCCC[n+]2ccc(NCCCCCCCCCC)cc2)cc1 [Example 64B]", "target.system": "T. menta. 9129", "MIC [µg/mL]": 1}
{"compound": "CCCCCCCCCCNc1cc[n+](CCCCCCCC[n+]2ccc(NCCCCCCCCCC)cc2)cc1", "target.system": "T. menta. 9129", "MIC [µg/mL]": 1.95}
{"compound": "CCCCCCCCCNc1cc[n+](CCCCCC[n+]2ccc(NCCCCCCCCC)cc2)cc1", "target.system": "T. menta. 9129", "MIC [µg/mL]": 1}
{"compound": "CCCCCCCCNc1cc[n+](CCCCCCCC[n+]2ccc(NCCCCCCCC)cc2)cc1", "target.system": "T. menta. 9129", "MIC [µg/mL]": 0.5}

Quick note, MIC for Nc1cc[n+](CCCC[n+]2ccc(N)cc2)cc1 [III, reference compound] landed at 500

MIC for CCCCC(CC)CNc1cc[n+](CCCCCCCCCC[n+]2ccc(NCC(CC)CCCC)cc2)cc1 (stereo not drawn) is 0.76

Measured MIC, CCCCC(CC)CNc1cc[n+](CCCC[n+]2ccc(NCC(CC)CCCC)cc2)cc1 (stereo not drawn) : 15.6
